Test system: A549
Experiment: NCI tumour cell line growth inhibition, 48 h
Activity calls are given as the source filed them. No stated cut-off is given here; in the data, active = GI50 up to about 1.1 µM and inactive = higher.
Entry note: the call must match one of yes for active, no for inactive

## Input Please let me know the test result on file for O=C1CC(c2ccc[nH]2)=NN1c1ccccc1 .
## Output no

## Input Please let me know the test result on file for C=CCC(C(=O)O)c1ccccc1 (stereo not drawn) .
## Output no

## Input Please let me know the test result on file for C=CCCCN1C(=O)C2C3c4ccccc4C(C=O)(c4ccccc43)C2C1=O (stereo not drawn) .
## Output no

## Input Please let me know the test result on file for Cc1cccc2c1[C@]13OC(C)[C@]4(C)CC5OC(=O)[C@@]1(C)[C@@H]5[C@]34C(=O)O2 (stereo partly drawn) .
## Output no

## Input Please let me know the test result on file for CC(C)Oc1cccc(N2C(CCc3c[nH]c4ccc(Br)cc34)=NS(=O)(=O)c3cnccc32)c1 .
## Output no

## Input Please let me know the test result on file for Cc1cc(O)c2c(c1)C[C@@H](O)C1=C2C(=O)c2c(O)ccc(OC3CC(O)C(OC4CC(OC5CCC(OC6CC(O)C(OC7CC(OC8CCC(O)C(C)O8)C(O)C(C)O7)C(C)O6)C(C)O5)C(O)C(C)O4)C(C)O3)c2C1=O (stereo partly drawn) .
## Output yes

## Input Please let me know the test result on file for COc1ccc(C(CC(=O)C(C)(C)CN2CCCCC2)SCCS(=O)(=O)O)cc1 (stereo not drawn) .
## Output no

## Input Please let me know the test result on file for CC1(C)[N+]([O-])=[N+]([O-])C1(Br)c1ccccc1 (stereo not drawn) .
## Output no
